Reported E-rosette forming activity, percentage amount of active lymphocytes values follow for various compounds
System: lymphocytes of healthy persons
Test: Active E-rosette test, lymphocytes of healthy persons
Type: cell-based, human
Settings: 10^-3 moles/liter, n = 4
Non-standard residues stand in square brackets, D forms with d. Residues, ends and D or L forms follow the SMILES beside them. pGlu = O=C1CC[C@@H](C(=O)O)N1
The response must be a number in % with no trailing unit.

Compound	Test system	Unit info	Number
CC(C)[C@H](NC(=O)[C@H](CC(N)=O)NC(=O)[C@H](CCCCN)NC(=O)[C@@H](N)CCCNC(=N)N)C(=O)O [Arg--Lys--Asn--Val, Arg-Lys-Asn-Val] (H-RKNV-OH)	lymphocytes of healthy persons	%	35.5
CC(C)[C@H](NC(=O)[C@H](CC(=O)O)NC(=O)[C@H](CCCCN)NC(=O)[C@@H](N)CCCNC(=N)N)C(=O)O [Arg--Lys--Asp--Val, Arg-Lys-Asp-Val] (H-RKDV-OH)	lymphocytes of healthy persons	%	41.3
COC(=O)[C@@H](NC(=O)[C@H](CC(=O)O)NC(=O)[C@H](CCCCN)NC(=O)[C@@H](N)CCCNC(=N)N)C(C)C [Arg--Lys--Asp--Val--OMe, Arg-Lys-Asp-Val-OMe] (H-RKDV-OMe)	lymphocytes of healthy persons	%	26.8
CC(C)[C@H](NC(=O)[C@H](CCC(=O)O)NC(=O)[C@H](CCCCN)NC(=O)[C@@H](N)CCCNC(=N)N)C(=O)O [Arg--Lys--Glu--Val, Arg-Lys-Glu-Val] (H-RKEV-OH)	lymphocytes of healthy persons	%	33.2
CC(C)[C@H](NC(=O)[C@H](C)NC(=O)[C@H](CCCCN)NC(=O)[C@@H](N)CCCNC(=N)N)C(=O)O [Arg--Lys--Ala--Val, Arg-Lys-Ala-Val] (H-RKAV-OH)	lymphocytes of healthy persons	%	33.3
N=C(N)NCCC[C@H](NC(=O)[C@@H]1CCC(=O)N1)C(=O)N[C@@H](CCCCN)C(=O)N[C@@H](CC(=O)O)C(=O)O [Glp--Arg--Lys--Asp, Glp-Arg-Lys-Asp] ([pGlu]RKD-OH)	lymphocytes of healthy persons	%	29.1

Could you now consider this next compound?
Form: compound = CC(C)[C@H](NC(=O)[C@H](CC(=O)O)NC(=O)[C@H](CCCCN)NC(=O)[C@@H](N)CCCNC(=N)N)C(N)=O [Arg--Lys--Asp--Val--NH2, Arg-Lys-Asp-Val-NH2] (H-RKDV-NH2) ; E-rosette forming activity, percentage amount of active lymphocytes = 29.0

* * *

Test system: lymphocytes of patients suffering from rheumatoid arthritis
Test: Active E-rosette test, lymphocytes of rheumatoid arthritis patients
Type: cell-based, human
Settings: 10^-11 moles/liter, n = 4
Non-standard residues stand in square brackets, D forms with d. Residues, ends and D or L forms follow the SMILES beside them. pGlu = O=C1CC[C@@H](C(=O)O)N1
Measured E-rosette forming activity, percentage amount of active lymphocytes, listed per entry for reference.
// units = %; emit number, no label

Below are worked cases with known answers.
Molecule	Test system	Number
CC[C@H](C)[C@H](NC(=O)[C@H](CC(=O)O)NC(=O)[C@H](CCCCN)NC(=O)[C@@H](N)CCCNC(=N)N)C(=O)O [Arg--Lys--Asp--Ile, Arg-Lys-Asp-Ile] (H-RKDI-OH)	lymphocytes of patients suffering from rheumatoid arthritis	24.5
CC(C)[C@H](NC(=O)[C@H](CC(N)=O)NC(=O)[C@H](CCCCN)NC(=O)[C@@H](N)CCCNC(=N)N)C(=O)O [Arg--Lys--Asn--Val, Arg-Lys-Asn-Val] (H-RKNV-OH)	lymphocytes of patients suffering from rheumatoid arthritis	24.3
N=C(N)NCCC[C@H](NC(=O)[C@@H]1CCC(=O)N1)C(=O)N[C@@H](CCCCN)C(=O)N[C@@H](CC(=O)O)C(=O)O [Glp--Arg--Lys--Asp, Glp-Arg-Lys-Asp] ([pGlu]RKD-OH)	lymphocytes of patients suffering from rheumatoid arthritis	18.4
CC(C)[C@H](NC(=O)[C@H](CCCCN)NC(=O)[C@H](CC(=O)O)NC(=O)[C@@H](N)CCCNC(=N)N)C(=O)O [Arg--Asp--Lys--Val, Arg-Asp-Lys-Val] (H-RDKV-OH)	lymphocytes of patients suffering from rheumatoid arthritis	27.5
CC(C)[C@H](NC(=O)[C@H](CC(=O)O)NC(=O)[C@H](CCCCN)NC(=O)[C@H](CCCNC(=N)N)NC(=O)[C@@H]1CCC(=O)N1)C(=O)O [Glp--Arg--Lys--Asp--Val, Glp-Arg-Lys-Asp-Val] ([pGlu]RKDV-OH)	lymphocytes of patients suffering from rheumatoid arthritis	20.4
CC(C)[C@H](NC(=O)[C@H](CC(=O)O)NC(=O)[C@H](CCCNC(=N)N)NC(=O)[C@@H](N)CCCCN)C(=O)O [Lys--Arg--Asp--Val, Lys-Arg-Asp-Val] (H-KRDV-OH)	lymphocytes of patients suffering from rheumatoid arthritis	26.6
COC(=O)[C@@H](NC(=O)[C@H](CC(=O)O)NC(=O)[C@H](CCCCN)NC(=O)[C@@H](N)CCCNC(=N)N)C(C)C [Arg--Lys--Asp--Val--OMe, Arg-Lys-Asp-Val-OMe] (H-RKDV-OMe)	lymphocytes of patients suffering from rheumatoid arthritis	26.5
CC(C)[C@H](NC(=O)[C@H](CC(=O)O)NC(=O)[C@H](CCCCN)NC(=O)[C@H](CCCNC(=N)N)NC(=O)[C@@H]1CCC(=O)N1)C(=O)N[C@@H](Cc1ccc(O)cc1)C(=O)O [Glp--Arg--Lys--Asp--Val--Tyr, Glp-Arg-Lys-Asp-Val-Tyr] ([pGlu]RKDVY-OH)	lymphocytes of patients suffering from rheumatoid arthritis	24.9
CC(C)[C@H](NC(=O)[C@H](CC(=O)O)NC(=O)[C@H](C)NC(=O)[C@@H](N)CCCNC(=N)N)C(=O)O [Arg--Ala--Asp--Val, Arg-Ala-Asp-Val] (H-RADV-OH)	lymphocytes of patients suffering from rheumatoid arthritis	22.5

For the next question, use this molecule.
Here C[C@H](NC(=O)[C@H](CC(=O)O)NC(=O)[C@H](CCCCN)NC(=O)[C@@H](N)CCCNC(=N)N)C(=O)O [Arg--Lys--Asp--Ala, Arg-Lys-Asp-Ala] (H-RKDA-OH) was tested on lymphocytes of patients suffering from rheumatoid arthritis, and its E-rosette forming activity, percentage amount of active lymphocytes came to 27.9

* * *

System: lymphocytes of patients suffering from rheumatoid arthritis
Assay: Active E-rosette test, lymphocytes of rheumatoid arthritis patients
Format: cell-based, human
Details: 10^-11 moles/liter, n = 4
Residues, ends and D or L forms follow the SMILES beside them.
So basically: is E-rosette forming activity, percentage amount of active lymphocytes under 30%? Then Yes. Not under? Then No.

State whether 30% exceeds E-rosette forming activity, percentage amount of active lymphocytes recorded for N=C(N)NCCC[C@H](N)C(=O)N[C@@H](CCCCN)C(=O)N[C@@H](CC(=O)O)C(=O)O [Arg--Lys--Asp, Arg-Lys-Asp] (H-Arg-Lys-Asp-OH) .
Yes

Check if E-rosette forming activity, percentage amount of active lymphocytes falls below 30% for CC(C)[C@H](NC(=O)[C@H](C)NC(=O)[C@H](CCCCN)NC(=O)[C@@H](N)CCCNC(=N)N)C(=O)O [Arg--Lys--Ala--Val, Arg-Lys-Ala-Val] (H-RKAV-OH) .
Yes

E-rosette forming activity, percentage amount of active lymphocytes under 30%? Item: CC(C)[C@H](NC(=O)[C@H](CC(=O)O)NC(=O)[C@H](CCCCN)NC(=O)[C@H](C)N)C(=O)O [Ala--Lys--Asp--Val, Ala-Lys-Asp-Val] (H-AKDV-OH)
Yes

Quick check: E-rosette forming activity, percentage amount of active lymphocytes of CC(C)[C@H](NC(=O)[C@H](CC(=O)O)NC(=O)[C@H](CCCCN)NC(=O)[C@@H](N)CCCNC(=N)N)C(=O)O [Arg--Lys--Asp--Val, Arg-Lys-Asp-Val] (H-RKDV-OH) under 30%?
No

Consider the compound CC(C)[C@H](NC(=O)[C@H](CC(=O)O)NC(=O)[C@H](CCCCN)NC(=O)[C@@H](N)CCCNC(=N)N)C(N)=O [Arg--Lys--Asp--Val--NH2, Arg-Lys-Asp-Val-NH2] (H-RKDV-NH2) . Is its E-rosette forming activity, percentage amount of active lymphocytes strictly less than 30%?
Yes

* * *

Test system: lymphocytes of healthy persons
Assay: Active E-rosette test, lymphocytes of healthy persons
Assay type: cell-based, human
Settings: 10^-11 moles/liter, n = 4
Non-standard residues stand in square brackets, D forms with d. Residues, ends and D or L forms follow the SMILES beside them. pGlu = O=C1CC[C@@H](C(=O)O)N1
# E-rosette forming activity, percentage amount of active lymphocytes per record follows

Worked set:
Molecule	Result
CC(C)[C@H](NC(=O)[C@H](CC(=O)O)NC(=O)[C@H](CCCCN)NC(=O)[C@H](CCCNC(=N)N)NC(=O)[C@@H]1CCC(=O)N1)C(=O)N[C@@H](Cc1ccc(O)cc1)C(=O)O [Glp--Arg--Lys--Asp--Val--Tyr, Glp-Arg-Lys-Asp-Val-Tyr] ([pGlu]RKDVY-OH)	29.9%
N=C(N)NCCC[C@H](N)C(=O)N[C@@H](CCCCN)C(=O)N[C@@H](CC(=O)O)C(=O)O [Arg--Lys--Asp, Arg-Lys-Asp] (H-Arg-Lys-Asp-OH)	35.9%
CC(C)[C@H](NC(=O)[C@H](CC(N)=O)NC(=O)[C@H](CCCCN)NC(=O)[C@@H](N)CCCNC(=N)N)C(=O)O [Arg--Lys--Asn--Val, Arg-Lys-Asn-Val] (H-RKNV-OH)	36.7%
CC(C)[C@H](NC(=O)[C@H](CCC(=O)O)NC(=O)[C@H](CCCCN)NC(=O)[C@@H](N)CCCNC(=N)N)C(=O)O [Arg--Lys--Glu--Val, Arg-Lys-Glu-Val] (H-RKEV-OH)	33.0%
CC(C)[C@H](NC(=O)[C@H](CC(=O)O)NC(=O)[C@H](CCCNC(=N)N)NC(=O)[C@@H](N)CCCCN)C(=O)O [Lys--Arg--Asp--Val, Lys-Arg-Asp-Val] (H-KRDV-OH)	32.9%

E-rosette forming activity, percentage amount of active lymphocytes reading for COC(=O)[C@@H](NC(=O)[C@H](CC(=O)O)NC(=O)[C@H](CCCCN)NC(=O)[C@@H](N)CCCNC(=N)N)C(C)C [Arg--Lys--Asp--Val--OMe, Arg-Lys-Asp-Val-OMe] (H-RKDV-OMe) : 23.8%

Recorded result, CC(C)[C@H](NC(=O)[C@H](CC(=O)O)NC(=O)[C@H](CCCCN)NC(=O)[C@H](C)N)C(=O)O [Ala--Lys--Asp--Val, Ala-Lys-Asp-Val] (H-AKDV-OH) , E-rosette forming activity, percentage amount of active lymphocytes: 36.2%

Query N=C(N)NCCC[C@H](NC(=O)[C@@H]1CCC(=O)N1)C(=O)N[C@@H](CCCCN)C(=O)N[C@@H](CC(=O)O)C(=O)O [Glp--Arg--Lys--Asp, Glp-Arg-Lys-Asp] ([pGlu]RKD-OH) yields E-rosette forming activity, percentage amount of active lymphocytes of 38.1%

Kindly note the recorded E-rosette forming activity, percentage amount of active lymphocytes for C[C@H](NC(=O)[C@H](CC(=O)O)NC(=O)[C@H](CCCCN)NC(=O)[C@@H](N)CCCNC(=N)N)C(=O)O [Arg--Lys--Asp--Ala, Arg-Lys-Asp-Ala] (H-RKDA-OH) , which is 40.5%

Where do the numbers come from? From patent US4428938A.
